assay: self-splicing fitness, log relative to wild type (ln ratio); higher = more splicing; Tetrahymena group I intron in knt gene, E. coli kanamycin selection, DiMSum; sequences stand for … in CUCUCU…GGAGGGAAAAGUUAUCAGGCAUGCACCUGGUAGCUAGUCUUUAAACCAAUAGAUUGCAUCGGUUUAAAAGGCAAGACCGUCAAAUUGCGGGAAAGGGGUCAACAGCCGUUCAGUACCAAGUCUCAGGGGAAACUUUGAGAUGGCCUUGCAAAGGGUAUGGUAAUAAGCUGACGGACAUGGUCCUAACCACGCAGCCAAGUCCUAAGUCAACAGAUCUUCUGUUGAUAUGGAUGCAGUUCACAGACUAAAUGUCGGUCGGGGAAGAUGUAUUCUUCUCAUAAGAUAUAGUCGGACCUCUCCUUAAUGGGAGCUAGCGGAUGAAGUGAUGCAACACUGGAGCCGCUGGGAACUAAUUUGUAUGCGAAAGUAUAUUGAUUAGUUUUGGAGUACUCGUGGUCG; conditions: 37 °C;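 also: selection with 25 µg/mL kanamycin versus none on LB agar overnight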
// not satisfied strictly below -2 in self-splicing fitness (ln); satisfied otherwise

self-splicing fitness (ln) >= -2 for CGGCAGCAAUAUUACGCGGU ?
not satisfied

Would you say CGACAGCAAUAUUACGCGUA shows self-splicing fitness (ln) at minimum -2?
satisfied

Evaluate GACCAGCAAUAUUACGGAUG : self-splicing fitness (ln) at minimum -2?
satisfied

Would you say ACCCAGCAAUAUUACGCGGG shows self-splicing fitness (ln) at minimum -2?
not satisfied

Decide: self-splicing fitness (ln) of CCUCAGCAAUAUUACGCCUU >= -2?
not satisfied

Hello, I need to know if UCAUAGCAAUAUUACGGGUC has measured self-splicing fitness (ln) not below -2. Thanks!
not satisfied

Dear colleague, could you confirm whether AUCGAGCAAUAUUACGCUUG has self-splicing fitness (ln) at or above -2?
satisfied

Decide: self-splicing fitness (ln) of GUCUAGCAAUAUUACGGAUG >= -2?
satisfied

Is it the case that ACAGAGCAAUAUUACGAUAA has self-splicing fitness (ln) reaching or exceeding -2?
not satisfied

Could you verify whether the entry UGUCAGCAAUAUUACGCACC shows self-splicing fitness (ln) of no less than -2?
satisfied

Dear colleague, could you confirm whether GCGAAGCAAUAUUACGAGGG has self-splicing fitness (ln) at or above -2?
not satisfied

Entry CGAUAGCAAUAUUACGUGAG : is its self-splicing fitness (ln) no less than -2?
satisfied

Is the recorded value of self-splicing fitness (ln) equal to or greater than -2 for this sequence? UACCAGCAAUAUUACGUAGU
satisfied

Entry GGCGAGCAAUAUUACGGGUU : is its self-splicing fitness (ln) no less than -2?
satisfied
